Measured values drawn from PubChem BioAssay for this set.

assay: human hepatoma cell viability loss – ATP luminescence, cytotoxicity control for P. falciparum antimalarial project, primary screen (AID 2303); conditions: HepG2 viability, 24-48 h, at 10 µM, active compounds read high;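 note: 0% = DMSO wells and 100% = digitonin-killed cells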
Reported inhibition values for a set of compounds
PROPERTY: inhibition (%)

{"COMPOUND": "CC(C)(C)SCC(O)Cn1c2ccc(Br)cc2c2cc(Br)ccc21 (stereo not given)", "PROPERTY": "inhibition", "REPORTED_MEASUREMENT": 4}
{"COMPOUND": "COc1ccc(-c2cc3ncnc(N4CCN(CCN5CCCC5)CC4)c3s2)cc1", "PROPERTY": "inhibition", "REPORTED_MEASUREMENT": 22}
{"COMPOUND": "Cc1c[nH]c2ccc(/C=C/C(=O)NC3CCC(CCN4CCc5ccc(C#N)cc5CC4)CC3)cc12 (stereo not given)", "PROPERTY": "inhibition", "REPORTED_MEASUREMENT": 9}
{"COMPOUND": "Cc1c(C(=O)N2CCCC(C(F)(F)F)C2)sc2cccc(F)c12 (stereo not given)", "PROPERTY": "inhibition", "REPORTED_MEASUREMENT": -4}
{"COMPOUND": "Cc1cc(N[C@@H](CC(C)C)C(=O)NCc2cccs2)nc(NCCc2cccs2)n1", "PROPERTY": "inhibition", "REPORTED_MEASUREMENT": -3}
{"COMPOUND": "CCn1c(CN2CCC(C)CC2)nc2cc(NC(=O)c3cccs3)ccc21", "PROPERTY": "inhibition", "REPORTED_MEASUREMENT": 40}
{"COMPOUND": "NC(=O)c1ccc(C(=O)Nc2cccc(-c3csc(-c4nc5ccccc5[nH]4)c3)c2)cc1", "PROPERTY": "inhibition", "REPORTED_MEASUREMENT": 14}
{"COMPOUND": "Cc1ccccc1C1CCN(C2CCC(NC(=O)c3cc(-c4ccccc4)oc3C)CC2)CC1 (stereo not given)", "PROPERTY": "inhibition", "REPORTED_MEASUREMENT": 46}
{"COMPOUND": "CC(C)Cn1ncc2c3c(N)nc(N)nc3ccc21", "PROPERTY": "inhibition", "REPORTED_MEASUREMENT": 63}
{"COMPOUND": "COc1ccc(CCNC(=O)c2ccc(-n3cc(NC(=O)c4cccnc4)cn3)cc2)cc1OC", "PROPERTY": "inhibition", "REPORTED_MEASUREMENT": 17}

---

Reported inhibition values for a set of compounds
target: L-lactate dehydrogenase (Plasmodium falciparum (isolate CDC / Honduras)) (UniProt Q27743); experiment: PfLDH activity inhibition – cell lysate, 3D7 strain, counter-screen for P. falciparum growth inhibition project (AID 2304);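 note: 0% = vehicle and 100% = reference inhibitor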; conditions: P. falciparum 3D7 crude extract, LDH APAD/NBT absorbance; at 2 µM; active compounds read high
Sequence (Q27743 whole entry, looked up): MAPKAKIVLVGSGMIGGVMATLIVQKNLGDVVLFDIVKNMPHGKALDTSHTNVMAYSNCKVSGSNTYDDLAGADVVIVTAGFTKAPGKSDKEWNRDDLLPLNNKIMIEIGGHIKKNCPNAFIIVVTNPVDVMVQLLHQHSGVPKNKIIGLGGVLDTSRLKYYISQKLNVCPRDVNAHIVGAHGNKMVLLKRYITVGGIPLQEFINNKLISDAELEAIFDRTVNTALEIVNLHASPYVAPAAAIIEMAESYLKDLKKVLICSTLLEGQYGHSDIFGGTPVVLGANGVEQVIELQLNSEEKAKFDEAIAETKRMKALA
Active and inactive are the calls of the source. How the calls were made is not given here.
PROPERTY: inhibition

{"COMPOUND": "COc1ccc(C(=O)Nc2cc(Br)c3c(c2)CNCC3)cc1Br", "PROPERTY": "inhibition", "REPORTED_MEASUREMENT": "7% (inactive)"}
{"COMPOUND": "C=CCNc1cc(-c2ccccn2)nc(-c2ccccn2)n1", "PROPERTY": "inhibition", "REPORTED_MEASUREMENT": "-2% (inactive)"}
{"COMPOUND": "COc1ccc(-c2ccc(Nc3cccc(S(=O)(=O)CCN4CCC(CCN(C)C)CC4)c3)nc2)cn1", "PROPERTY": "inhibition", "REPORTED_MEASUREMENT": "3% (inactive)"}
{"COMPOUND": "C=C(C)Cn1cc(C2CCN(CCCCNC(=O)c3sc(-c4ccc(Cl)cc4Cl)nc3CO)CC2)c2ccccc21", "PROPERTY": "inhibition", "REPORTED_MEASUREMENT": "4% (inactive)"}
{"COMPOUND": "CCC(C)(C)NC(=O)C(c1cccc(OC)c1)N(C(=O)CNC(=O)c1cccs1)c1ccc2c(c1)OCCO2 (stereo not given)", "PROPERTY": "inhibition", "REPORTED_MEASUREMENT": "-7% (inactive)"}
{"COMPOUND": "NC1=NC(c2ccccc2)(c2ccccc2)C(=O)N1CCCCc1ccccc1", "PROPERTY": "inhibition", "REPORTED_MEASUREMENT": "-2% (inactive)"}
{"COMPOUND": "NC(Cc1cccc(I)c1)C(=O)NCC1CCCO1 (stereo not given)", "PROPERTY": "inhibition", "REPORTED_MEASUREMENT": "1% (inactive)"}
{"COMPOUND": "Cc1oc(-c2cccc(Oc3ccccc3)c2)nc1CN(Cc1cnn(C)c1)C(C)C", "PROPERTY": "inhibition", "REPORTED_MEASUREMENT": "2% (inactive)"}
{"COMPOUND": "COc1ccccc1N=C1SC(=Cc2cn(CC(=O)N3CCCc4ccccc43)c3ccccc23)C(=O)N1C1CCCCC1", "PROPERTY": "inhibition", "REPORTED_MEASUREMENT": "2% (inactive)"}
{"COMPOUND": "Cc1ccc2c(OCCN3CCC(Cc4ccc5c(c4)NC(=O)CO5)CC3)cc(F)cc2n1", "PROPERTY": "inhibition", "REPORTED_MEASUREMENT": "-2% (inactive)"}
{"COMPOUND": "CN(C)CCN(C)Cc1ccc(-c2ccc3c(Nc4ccc(F)cc4Cl)ccnc3c2)o1", "PROPERTY": "inhibition", "REPORTED_MEASUREMENT": "5% (inactive)"}
{"COMPOUND": "CN1CCN(c2ccnc3cc4c(cc23)N(Cc2ccccc2)CC4)CC1", "PROPERTY": "inhibition", "REPORTED_MEASUREMENT": "-3% (inactive)"}
{"COMPOUND": "Cc1cccc(-c2ccc(NC(=O)C3CCN(Cc4cccc(O)c4)CC3)cc2)c1", "PROPERTY": "inhibition", "REPORTED_MEASUREMENT": "0% (inactive)"}
{"COMPOUND": "Cc1cc(N[C@@H](CC(C)C)C(=O)NCc2cccc(F)c2)nc(NCC2CCCCC2)n1", "PROPERTY": "inhibition", "REPORTED_MEASUREMENT": "-3% (inactive)"}
{"COMPOUND": "Cc1nc(N)nc(N)c1OCCCCOc1ccccc1", "PROPERTY": "inhibition", "REPORTED_MEASUREMENT": "-1% (inactive)"}
{"COMPOUND": "COc1cccc(OC2CCN(C(=O)c3cc(C(C)(C)C)nn3Cc3ccccc3)CC2)c1", "PROPERTY": "inhibition", "REPORTED_MEASUREMENT": "3% (inactive)"}
{"COMPOUND": "N#Cc1ccc(C(=O)Nc2ccc(Cl)c(N3CCN(CCc4ccccc4)CC3)c2)cc1", "PROPERTY": "inhibition", "REPORTED_MEASUREMENT": "5% (inactive)"}
{"COMPOUND": "FC(F)(F)c1ccc2nc(-c3ccc(-c4cccc(CN5CCN(c6ccncc6)CC5)c4)cc3)[nH]c2c1", "PROPERTY": "inhibition", "REPORTED_MEASUREMENT": "2% (inactive)"}
{"COMPOUND": "COc1cc(NC(=O)c2ccc(-c3ccc(C(C)=O)cc3)s2)ccc1OCCN1CCCC1", "PROPERTY": "inhibition", "REPORTED_MEASUREMENT": "3% (inactive)"}
{"COMPOUND": "Cc1ccccc1Nc1cc(Nc2ccccc2C)c2ccccc2n1", "PROPERTY": "inhibition", "REPORTED_MEASUREMENT": "-1% (inactive)"}

---

Reported growth inhibition values for a set of compounds
assay: inhibition of 3D7 malaria parasite growth – strain 3D7 (AID 2306);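 note: 0% = DMSO wells and 100% = chloroquine plus artemisinin control wells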; details: P. falciparum 3D7 erythrocytic growth, LDH absorbance, 72 h; at 2 µM; active compounds read high

{"COMPOUND": "Cc1cc(NC(=O)c2ccco2)ccc1OC1CCN(Cc2ccccc2)CC1", "growth inhibition, %": 93}
{"COMPOUND": "CCOc1ccc(C(C)NC(=O)Nc2ccccc2)cc1OCC (stereo unspecified)", "growth inhibition, %": 96}
{"COMPOUND": "Nc1nc(N)c2c(ccc3ccccc32)n1", "growth inhibition, %": 98}
{"COMPOUND": "CCCNCc1ccc(-c2ccc(CN(CCOC)C(=O)Cc3cccnc3)cc2)nc1", "growth inhibition, %": 92}
{"COMPOUND": "O=C(Nc1ccc(NC2=NCCN2)cc1)c1ccc(C(=O)Nc2ccc(NC3=NCCN3)cc2)cc1", "growth inhibition, %": 91}
{"COMPOUND": "CCC1CN(S(=O)(=O)c2ccc3c(c2)NC(=O)CC(=O)N3)c2cc(Cl)ccc2O1 (stereo unspecified)", "growth inhibition, %": 99}
{"COMPOUND": "COc1ccc(C(=O)Nc2cc(Cl)c3c(c2)C2CCCN2CC3)cc1C(F)(F)F (stereo unspecified)", "growth inhibition, %": 99}
{"COMPOUND": "O=C(Nc1cccc(F)c1)N1CCC(NS(=O)(=O)c2ccc(Br)cc2)CC1", "growth inhibition, %": 93}
{"COMPOUND": "COc1ccc(-c2cc3ncnc(N4CCN(CCN5CCCC5)CC4)c3s2)cc1", "growth inhibition, %": 98}
{"COMPOUND": "COc1ccccc1C1CCN(C2CCC(NC(=O)/C=C/c3cc(C(F)(F)F)ccc3F)CC2)CC1 (stereo unspecified)", "growth inhibition, %": 97}
{"COMPOUND": "O=C(/C=C/c1ccc(Cl)c(Cl)c1)NCCCCCN1CCC(NC(=O)c2ccc(F)cc2)CC1", "growth inhibition, %": 102}
{"COMPOUND": "Cc1[nH]c(C)c(-c2ccc(-c3ccc(F)cc3)nc2)c(=O)c1Br", "growth inhibition, %": 97}
{"COMPOUND": "COc1ccc2nccc([C@@H](O)CN3CCC(NCc4ccc5c(c4)oc(=S)n5C)CC3)c2c1", "growth inhibition, %": 100}
{"COMPOUND": "FC(F)(F)c1ccc2c(NN=Cc3cccc(Cl)c3)ccnc2c1", "growth inhibition, %": 93}
{"COMPOUND": "O=C(c1cccc(-c2noc(C(F)(F)F)n2)c1)N1CCN(c2ccncc2)CC1", "growth inhibition, %": 90}
{"COMPOUND": "Oc1ccc(CCNCCCCCCNCCc2ccc(Br)cc2)cc1O", "growth inhibition, %": 99}
{"COMPOUND": "COc1cc2nc(N3CCN(c4cc(C)ccc4C)CC3)nc(N)c2cc1OC", "growth inhibition, %": 98}
{"COMPOUND": "Cc1[nH]c(C)c(-c2ccc(-c3cccc(C(F)(F)F)c3)nc2)c(=O)c1Br", "growth inhibition, %": 97}
{"COMPOUND": "Nc1cccc(-c2ccc3ccnc(N)c3c2)c1", "growth inhibition, %": 91}
{"COMPOUND": "CN(C)CCN(C)Cc1ccc(-c2cccc(NC(=O)c3ccc(Cl)cc3)c2)cc1", "growth inhibition, %": 97}
{"COMPOUND": "Cc1ccc(NC(=O)NC2CCN(c3ccnc4cc(Cl)ccc34)C2)cc1 (stereo unspecified)", "growth inhibition, %": 101}
